# Read-out: Macrophage colony-stimulating factor (MCSF), CSF1 (gene 1435)
# method_description: BSK_hDFCGF_MCSF: BioMAP Diversity Plus: hDFCGF Assay for Macrophage colony-stimulating factor (MCSF) Biomarker Activity (AID 2283060)
# recorded_conditions: primary human foreskin fibroblasts; actives raise or lower the signal
The source made the active and inactive calls. Rule for the calls: active = hit-call score of the fitted dose curve at least 0.9, where 1 is the maximum; inactive = score below 0.9.
Possible outcomes: Yes = active, No = inactive

# compound, label_value
rows = [
    ("C=CC(=O)OCCCCCC(C)C", "No"),
    ("ClC1=C(Cl)[C@]2(Cl)[C@H]3[C@H]([C@H]4C=C[C@H]3C4)[C@@]1(Cl)C2(Cl)Cl", "Yes"),
    ("C[C@]12CCC(=O)C[C@@H]1CC[C@@H]1[C@@H]2CC[C@]2(C)[C@@H](O)CC[C@@H]12", "No"),
    ("CC(C)(c1ccccc1)c1ccc(O)c(C(C)(C)c2ccccc2)c1", "Yes"),
    ("CCOP(=S)(OCC)Oc1nc(Cl)c(Cl)cc1Cl", "Yes"),
    ("CCSC(C)CC1CC(=O)C(C(CC)=NOC/C=C/Cl)=C(O)C1 (centres undefined)", "No"),
    ("CCCCCCCCC(=O)NCc1ccc(O)c(OC)c1", "No"),
    ("O=C(OC1CCCCC1)c1ccccc1C(=O)OC1CCCCC1", "Yes"),
    ("CC(C)(C)CC(C)(C)c1ccc(O)cc1", "Yes"),
    ("BrCCBr", "No"),
    ("C(=NC1CCCCC1)=NC1CCCCC1", "Yes"),
    ("CC12CC1(C)C(=O)N(c1cc(Cl)cc(Cl)c1)C2=O (centres undefined)", "No"),
    ("O=C1C2(Cl)C3(Cl)C4(Cl)C(Cl)(Cl)C5(Cl)C3(Cl)C1(Cl)C5(Cl)C24Cl (centres undefined)", "Yes"),
    ("Oc1ccc(-c2ccccc2)cc1", "No"),
    ("O=C(Nc1ccc2[nH]ccc2c1)c1cc2cc(F)ccc2n1Cc1cccc(F)c1", "Yes"),
    ("C=C(C)C(=O)[O][Sn]([CH2]CCC)([CH2]CCC)[CH2]CCC", "Yes"),
    ("CCOC(=O)/C=C(C)/C=C/C[C@@H](C)CCCC(C)C", "Yes"),
    ("CCN1CCC2(CC1)COc1cc3c(cc12)N(C(=O)c1ccc(-c2ccc(-c4nnc(C)o4)cc2C)cc1)CC3", "Yes"),
    ("ClC1(Cl)C2(Cl)C3(Cl)C4(Cl)C(Cl)(Cl)C5(Cl)C3(Cl)C1(Cl)C5(Cl)C24Cl (centres undefined)", "No"),
    ("NC(=O)O", "No"),
    ("COC(=O)c1sccc1S(=O)(=O)NC(=O)Nc1nc(C)nc(OC)n1", "No"),
    ("C[C@@H]1C[C@@H]([C@H](O)CC2CC(=O)NC(=O)C2)C(=O)[C@@H](C)C1", "Yes"),
    ("COc1cc(OC)nc(NC(=O)NS(=O)(=O)c2ncccc2C(=O)N(C)C)n1", "No"),
    ("CC(C)(OO)c1ccccc1", "Yes"),
]

###

# Read-out: Forkhead box O3 (FOXO3), FOXO3 (gene 2309)
# method_description: LTEA_HepaRG_FOXO3: Life Technologies and Expression Analysis (LTEA) Assay for Forkhead box O3 (FOXO3) using HepaRG (AID 2283459)
# recorded_conditions: mRNA level, 48 h; actives raise or lower the signal
Activity calls are given as the source filed them. Rule for the calls: active = hit-call score of the fitted dose curve at least 0.9, where 1 is the maximum; inactive = score below 0.9.
Possible outcomes: active, inactive

# compound, label_value
records = [
    ("C[C@@H]1C[C@@H]([C@H](O)CC2CC(=O)NC(=O)C2)C(=O)[C@@H](C)C1", "active"),
    ("O=C1C2(Cl)C3(Cl)C4(Cl)C(Cl)(Cl)C5(Cl)C3(Cl)C1(Cl)C5(Cl)C24Cl (stereo unspecified)", "active"),
    ("Cn1sc(Cl)cc1=O", "inactive"),
    ("CC(C)(OO)c1ccccc1", "inactive"),
    ("O=C(Nc1ccc2[nH]ccc2c1)c1cc2cc(F)ccc2n1Cc1cccc(F)c1", "inactive"),
    ("O=C(O)C(F)(F)C(F)(F)C(F)(F)C(F)(F)C(F)(F)C(F)(F)C(F)(F)C(F)(F)C(F)(F)C(F)(F)F", "active"),
    ("CC12CC1(C)C(=O)N(c1cc(Cl)cc(Cl)c1)C2=O (stereo unspecified)", "inactive"),
    ("C=CC(=O)OCCCCCC(C)C", "inactive"),
    ("C[C@]12CCC(=O)C[C@@H]1CC[C@@H]1[C@@H]2CC[C@]2(C)[C@@H](O)CC[C@@H]12", "inactive"),
    ("CCOP(=S)(OCC)SCSP(=S)(OCC)OCC", "inactive"),
    ("COc1cc(-c2ccc(N)c(OC)c2)ccc1N", "inactive"),
]

###

# Read-out: Matrix Metallopeptidase 1 (MMP1), MMP1 (gene 4312)
# method_description: BSK_hDFCGF_MMP1: BioMAP Diversity Plus: hDFCGF Assay for Matrix Metallopeptidase 1 (MMP1) Biomarker Activity (AID 2283064)
# recorded_conditions: primary human foreskin fibroblasts; actives raise or lower the signal
Activity calls are given as the source filed them. The calls were made as follows: active = hit-call score of the fitted dose curve at least 0.9, where 1 is the maximum; inactive = score below 0.9.
Possible outcomes: Yes for active, No for inactive

# compound, label_value
data = [
    ("COc1cc(OC)nc(NC(=O)NS(=O)(=O)c2ncccc2C(=O)N(C)C)n1", "No"),
    ("CC(C)CCCCCCOC(=O)c1ccccc1C(=O)OCCCCCCC(C)C", "No"),
    ("ClC1=C(Cl)[C@]2(Cl)[C@H]3[C@H]([C@H]4C=C[C@H]3C4)[C@@]1(Cl)C2(Cl)Cl", "No"),
    ("C=CC(=O)OCCCCCC(C)C", "No"),
    ("CC1(C)Cc2cccc(O)c2O1", "No"),
    ("O=c1[nH]c(=O)[nH]c(=O)[nH]1", "No"),
    ("CCN1CCC2(CC1)COc1cc3c(cc12)N(C(=O)c1ccc(-c2ccc(-c4nnc(C)o4)cc2C)cc1)CC3", "Yes"),
    ("COP(=S)(OC)Oc1c(Cl)cc(C)cc1Cl", "No"),
    ("CCOP(=S)(OCC)Oc1nc(Cl)c(Cl)cc1Cl", "Yes"),
    ("Nc1ccc(-c2ccc(N)c(Cl)c2)cc1Cl", "No"),
    ("Nc1cccc2ccccc12", "Yes"),
    ("O=[N+]([O-])c1ccc2c3c(cccc13)CC2", "No"),
    ("CC(C)(OO)c1ccccc1", "Yes"),
    ("CCOP(=S)(OCC)Oc1ccc(S(C)=O)cc1 (stereo unspecified)", "No"),
    ("CC(=O)[O][Hg][c]1ccccc1", "Yes"),
    ("Cc1ccccc1N", "No"),
    ("O=C(Nc1ccc2[nH]ccc2c1)c1cc2cc(F)ccc2n1Cc1cccc(F)c1", "Yes"),
    ("O=C(O)C(Cl)(Cl)Cl", "No"),
    ("CCCCCCCCC(=O)NCc1ccc(O)c(OC)c1", "No"),
    ("CC(C)(c1ccccc1)c1ccc(O)c(C(C)(C)c2ccccc2)c1", "Yes"),
    ("CCOC(=O)/C=C(C)/C=C/C[C@@H](C)CCCC(C)C", "Yes"),
    ("COP(=S)(OC)Oc1ccc(S(=O)(=O)N(C)C)cc1", "No"),
    ("CCOP(=S)(OCC)SCSP(=S)(OCC)OCC", "No"),
    ("OCc1ccco1", "No"),
    ("O=S(=O)(c1ccc(Cl)cc1)c1ccc(Cl)cc1", "No"),
    ("COC(=O)Cc1ccccc1", "No"),
    ("CC(C)(C)CC(C)(C)c1ccc(O)cc1", "Yes"),
    ("C=C(C)C(=O)[O][Sn]([CH2]CCC)([CH2]CCC)[CH2]CCC", "Yes"),
    ("CCC(C)(C)c1ccc(O)c(C(C)(C)CC)c1", "Yes"),
    ("CCSC(C)CC1CC(=O)C(C(CC)=NOC/C=C/Cl)=C(O)C1 (stereo unspecified)", "No"),
    ("COC[C@H](C)N(C(=O)CCl)c1c(C)csc1C", "No"),
    ("NC(=O)O", "No"),
    ("CC(=O)OC(c1ccccc1)C(Cl)(Cl)Cl (stereo unspecified)", "No"),
    ("O=C(OC1CCCCC1)c1ccccc1C(=O)OC1CCCCC1", "Yes"),
    ("CCNc1nc(NC(C)(C)C)nc(SC)n1", "No"),
    ("Oc1ccc(-c2ccccc2)cc1", "No"),
    ("Oc1c(I)cc(I)cc1I", "No"),
    ("COP(=S)(OC)Oc1ccc(Sc2ccc(OP(=S)(OC)OC)cc2)cc1", "No"),
    ("NC(=S)Nc1ccccc1", "No"),
    ("COC(=O)c1sccc1S(=O)(=O)NC(=O)Nc1nc(C)nc(OC)n1", "No"),
    ("CC(C)c1ccc(CO)cc1", "No"),
]
